Tested on: normal primary NK cells, pool 1 (3 donors), resting (IL-2 0 ng/mL)
Assay: drug sensitivity score (DSS) (DSS units); higher = more sensitive; extreme values may be limits of the assay
Conditions: 72 h
What drug sensitivity score was measured for each of the following?

compound="C=C1C[C@@H]2[C@H](CC[C@]3(C)C(=O)CC[C@@H]23)[C@@]2(C)C=CC(=O)C=C12 [Exemestane] (max concentration tested 10000 nM)" reported_property="drug sensitivity score" reported_result=4.06
compound="COc1cc2c(Oc3ccc4[nH]c(C)cc4c3F)ncnc2cc1OCCCN1CCCC1 [Cediranib] (max concentration tested 1000 nM)" reported_property="drug sensitivity score" reported_result=0
compound="N#CC[C@H](C1CCCC1)n1cc(-c2ncnc3[nH]ccc23)cn1 [Ruxolitinib] (max concentration tested 10000 nM)" reported_property="drug sensitivity score" reported_result=0.6
compound="COc1ccc(CCc2nc3cc(-c4c(C)noc4C)ccc3n2C[C@H](C)N2CCOCC2)cc1Cl [SGC-CBP30] (max concentration tested 25000 nM)" reported_property="drug sensitivity score" reported_result=7.45
compound="CCN1CCN(Cc2ccc(Nc3ncc(F)c(-c4cc(F)c5nc(C)n(C(C)C)c5c4)n3)nc2)CC1 [Abemaciclib] (max concentration tested 2500 nM)" reported_property="drug sensitivity score" reported_result=0.89
compound="COc1cc2nccc(Oc3ccc(NC(=O)Nc4cc(C)on4)c(Cl)c3)c2cc1OC [Tivozanib] (max concentration tested 10000 nM)" reported_property="drug sensitivity score" reported_result=6.37
compound="O=C(c1ccc(OCCN2CCCCC2)cc1)c1c(-c2ccc(O)cc2)sc2cc(O)ccc12 [Raloxifene] (max concentration tested 10000 nM)" reported_property="drug sensitivity score" reported_result=1.08
compound="COC1=CC(c2cc3ccccc3[nH]2)=N/C1=C\\c1[nH]c(C)cc1C [Obatoclax] (max concentration tested 10000 nM)" reported_property="drug sensitivity score" reported_result=4.87
compound="C[C@@H](Oc1cc(-n2cnc3ccc(CN4CCN(C)CC4)cc32)sc1C(N)=O)c1ccccc1C(F)(F)F (max concentration tested 10000 nM)" reported_property="drug sensitivity score" reported_result=15.5
compound="CCCCC(=O)OCC(=O)[C@]1(O)Cc2c(O)c3c(c(O)c2[C@@H](O[C@H]2C[C@H](NC(=O)C(F)(F)F)[C@H](O)[C@H](C)O2)C1)C(=O)c1c(OC)cccc1C3=O [Valrubicin] (max concentration tested 5000 nM)" reported_property="drug sensitivity score" reported_result=16.1

Please report drug sensitivity score for every entry that follows.
1. CNC(=O)c1ccc(N2C(=S)N(c3cnc(C#N)c(C(F)(F)F)c3)C(=O)C23CCC3)cc1F [ARN 509] (max concentration tested 10000 nM)
2. C[C@@]1(C(=O)Nc2ccc(F)nc2)CCCN1c1nc(Nc2cc(C3CC3)n[nH]2)c2cccn2n1 (max concentration tested 10000 nM)
3. CC(=O)O[C@@]12CO[C@@H]1C[C@H](O)[C@@]1(C)C(=O)[C@H](O)C3=C(C)[C@@H](OC(=O)[C@H](O)[C@@H](NC(=O)OC(C)(C)C)c4ccccc4)C[C@@](O)([C@@H](OC(=O)c4ccccc4)[C@H]21)C3(C)C [Docetaxel] (max concentration tested 1000 nM)
4. C=CCc1cccc(/C=N/NC(=O)CN2CCN(Cc3ccccc3)CC2)c1O [PAC-1] (max concentration tested 10000 nM)
5. O=C(O)CCCCC(CCSCc1ccccc1)SCc1ccccc1 (stereo not drawn) [CPI-613] (max concentration tested 10000 nM)
6. CC[C@H](Nc1ncnc2[nH]cnc12)c1nc2cccc(F)c2c(=O)n1-c1ccccc1 [Idelalisib] (max concentration tested 10000 nM)
7. O=C(Nc1ccc(OC(F)(F)F)cc1)c1sccc1NCc1ccnc2ccccc12 [OSI-930] (max concentration tested 2500 nM)
8. CCn1cc(-c2ccnc3[nH]c(-c4cccc(CN(C)C)c4)cc23)c(-c2ccc(NC(=O)N(C)C)cc2)n1 (max concentration tested 1000 nM)

Completion:
1. 0.11
2. 2.52
3. 0
4. 4.76
5. 3.6
6. 2.55
7. 0.24
8. 0

Please report drug sensitivity score for every entry that follows.
1. CNC(=O)c1ccc(N2C(=S)N(c3ccc(C#N)c(C(F)(F)F)c3)C(=O)C23CCC3)cc1F [RD162] (max concentration tested 10000 nM)
2. CN(C)C1CCN(C(=O)c2ccc(NC(=O)Nc3ccc(-c4nc(N5CCOCC5)nc(N5CCOCC5)n4)cc3)cc2)CC1 [Gedatolisib] (max concentration tested 1000 nM)
3. Cn1cc(-c2ccc3nnc(C(F)(F)c4ccc5ncccc5c4)n3n2)cn1 (max concentration tested 10000 nM)
4. O=C(Nc1cccnc1)N1CCC(Cc2cccc(Oc3ccc(C(F)(F)F)cn3)c2)CC1 [PF-3845] (max concentration tested 10000 nM)
5. Nc1nc2[nH]cnc2c(=S)[nH]1 [Thioguanine] (max concentration tested 10000 nM)

Completion:
1. 5.08
2. 0.01
3. 0
4. 3.74
5. 4.42
